- system.tested: T1, human amylin receptor (AMY3) on CHO-K1/Ga15/AMY3 cells (human, UniProt P30988 25-474; O60896 24-148)
- T1 sequence (looked up) 1: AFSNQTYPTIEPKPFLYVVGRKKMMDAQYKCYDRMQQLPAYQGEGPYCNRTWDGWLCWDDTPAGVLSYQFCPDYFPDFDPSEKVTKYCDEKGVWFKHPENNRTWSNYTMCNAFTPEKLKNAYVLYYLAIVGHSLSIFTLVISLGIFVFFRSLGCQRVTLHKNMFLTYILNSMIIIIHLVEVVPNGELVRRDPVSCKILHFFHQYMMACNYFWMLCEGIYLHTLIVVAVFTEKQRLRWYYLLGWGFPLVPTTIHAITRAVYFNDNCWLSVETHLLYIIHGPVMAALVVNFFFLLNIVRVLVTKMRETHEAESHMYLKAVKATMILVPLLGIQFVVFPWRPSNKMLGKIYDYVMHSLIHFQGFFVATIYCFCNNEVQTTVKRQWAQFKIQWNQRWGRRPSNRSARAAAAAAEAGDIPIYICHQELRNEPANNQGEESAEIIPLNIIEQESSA
- T1 sequence (looked up) 2: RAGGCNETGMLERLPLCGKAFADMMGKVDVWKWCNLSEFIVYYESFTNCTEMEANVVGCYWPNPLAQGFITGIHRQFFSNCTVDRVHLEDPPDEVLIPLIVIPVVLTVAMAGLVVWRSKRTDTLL
- experiment.notes: cell-based or functional assay
*1 amine or outer side, *2 acyl side, *3 side chain or, on linkers, in order; H or OH if unused. Bridges are numbered along the chain shown (N, C = ends). Primed or numbered codes have the meaning given here. Where no end group is shown, it is not given here. Side-chain parts run from the residue outwards. [ ]: non-standard residue; d: D form. The star is where a group is joined. C20 diacid = O=C(O)CCCCCCCCCCCCCCCCCCC(=O)*; γGlu = O=C(O)[C@H](CCC(=O)[*:2])N[*:1]; βAsp = O=C(O)[C@H](CC(=O)[*:2])N[*:1]; Hyp = O=C(O)[C@@H]1C[C@@H](O)CN1; Pip′ = not defined here; AEEA = NCCOCCOCC(=O)O
value.type: EC50, CRE-luciferase assay (nM)

(P) RCNTATCATQRLADFLRHSSNNLK([AEEA-γGlu-C20 diacid])PILPPTNVGSNT[Hyp]-NH2 (disulfide 2-7 (inferred)) [PD106]
(Q) {C20 diacid-βAsp-AEEA-AEEA}-KCNTATCATQRLADFLRHSSNNLKPILPPTNVGSNTP-NH2 (disulfide 2-7 (inferred)) [PD196]
(R) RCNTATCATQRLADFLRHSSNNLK([γGlu-C20 diacid])PILPPTNVGSNT[Pip′]-NH2 (disulfide 2-7 (inferred)) [PD058]
INPUT: Order these by EC50, CRE-luciferase assay, descending, and give the full ranking. // rank by listing labels in the order requested
OUTPUT: R, Q, P
(R: 0.319 nM, Q: 0.064 nM, P: 0.026 nM)

(A) RCNTATCATQRLADFLRHSSNNLGK([AEEA-γGlu-C20 diacid])ILPPTNVGSNT[Hyp]-NH2 (disulfide 2-7 (inferred)) [PD120]
(B) {C20 diacid-γGlu}-KCNTATCATQRLADFLRHSSNNLSPILPPTNVGSNTP-NH2 (disulfide 2-7 (inferred)) [PD166]
INPUT: For the pair A and B , which entry has the numerically smaller recorded EC50, CRE-luciferase assay? Identify your selection by its label.
OUTPUT: A
(A: 0.023 nM, B: 0.054 nM)
